Please respond with reported inhibition for every item in the list.
biological target: Pantothenate synthetase (Mycobacterium tuberculosis (strain ATCC 25618 / H37Rv)) (UniProt P9WIL5); assay: Coupled enzyme confirmation of inhibitors against recombinant Mtb PanC (AID 375); settings: coupled enzyme assay; at 10 µM, hits give high values;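 note: 0% = full reaction with vehicle and 100% = no enzyme background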
Sequence (P9WIL5 whole entry, looked up): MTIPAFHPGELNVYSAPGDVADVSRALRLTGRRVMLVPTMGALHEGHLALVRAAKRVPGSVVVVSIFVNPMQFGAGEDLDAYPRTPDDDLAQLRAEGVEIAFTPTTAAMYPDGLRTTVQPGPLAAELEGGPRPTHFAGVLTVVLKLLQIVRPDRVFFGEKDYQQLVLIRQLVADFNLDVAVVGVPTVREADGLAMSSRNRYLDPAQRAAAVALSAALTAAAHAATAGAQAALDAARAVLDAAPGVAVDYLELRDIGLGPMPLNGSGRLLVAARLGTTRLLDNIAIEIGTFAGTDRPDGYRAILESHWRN
The source made the active and inactive calls. The rule behind the calls is not given here.

Query :: Data request, read-out inhibition, for COC(=O)c1ccc(-c2sc3nc(N4CCOCC4)c4c(c3c2N)CCCC4)o1
Result :: 0% (inactive)

Query :: Data request, read-out inhibition, for c1ccc(-c2nnc(-c3ccco3)n2-c2ccccc2)cc1
Result :: 0% (inactive)

Query :: Data request, read-out inhibition, for COc1ccccc1-c1nnc(SCC(=O)N2CC(C)CC(C)C2)o1 (stereo unspecified)
Result :: 4% (inactive)

Query :: Data request, read-out inhibition, for COc1ccc(S(=O)(=O)N(CC(=O)N2CCN(c3ccccc3OC)CC2)c2ccccc2)cc1
Result :: 0% (inactive)

Query :: Data request, read-out inhibition, for Clc1ccc(SCCn2ccnc2)cc1
Result :: 0% (inactive)

Query :: Data request, read-out inhibition, for COC(=O)c1ccccc1NC(=O)CSc1nnc(-c2ccncc2)o1
Result :: 0% (inactive)

Query :: Data request, read-out inhibition, for O=C(O)CSc1ncn[nH]1
Result :: 0% (inactive)

Query :: Data request, read-out inhibition, for Cc1sc(NC(=O)CSc2nc(N)n(CC(=O)c3ccccc3)n2)c(C#N)c1C
Result :: 4% (inactive)

Query :: Data request, read-out inhibition, for CCCC(=O)Nc1ccc(OCC(O)CNC(C)C)c(C(C)=O)c1 (stereo unspecified)
Result :: 0% (inactive)

Query :: Data request, read-out inhibition, for COc1cccc2cc(C(=O)n3ccc(C)n3)c(=O)oc12
Result :: 1% (inactive)

Query :: Data request, read-out inhibition, for Cc1ccc2cc3cc(C(=O)NCCN4CCOCC4)oc3nc2c1
Result :: 4% (inactive)

Query :: Data request, read-out inhibition, for COc1ccc(-c2onc(C)c2-c2ccccc2)c(O)c1
Result :: 3% (inactive)

Query :: Data request, read-out inhibition, for Cc1nc2sc(C(c3cccs3)N3CC(C)CC(C)C3)c(O)n2n1 (stereo unspecified)
Result :: 0% (inactive)

Query :: Data request, read-out inhibition, for Cc1ccc(C)c(/C(O)=C2\C(=O)C(=O)N(CCCN3CCOCC3)C2c2cccnc2)c1 (stereo unspecified)
Result :: 2% (inactive)

Query :: Data request, read-out inhibition, for O=c1[nH]cnc2c1C1(CCCC1)Cc1ccccc1-2
Result :: 0% (inactive)

Query :: Data request, read-out inhibition, for CCC(C)n1ncn(-c2ccc(N3CCN(c4ccc(OCC5COC(Cn6cncn6)(c6ccc(Cl)cc6Cl)O5)cc4)CC3)cc2)c1=O (stereo unspecified)
Result :: 8% (inactive)

Query :: Data request, read-out inhibition, for COc1ccc2cc(CN(CCO)C(=O)c3ccc(Br)cc3)c(=O)[nH]c2c1
Result :: 14% (inactive)

Query :: Data request, read-out inhibition, for CN1C(=O)CC(N2CCC(C(N)=O)(N3CCCCC3)CC2)C1=O (stereo unspecified)
Result :: 0% (inactive)

Query :: Data request, read-out inhibition, for COc1ccc(N2CCN(Cc3nc4c(c(=O)n(C)c(=O)n4C)n3Cc3ccccc3C)CC2)cc1
Result :: 7% (inactive)

Query :: Data request, read-out inhibition, for CC1(C)CC(=O)C(CC(=O)NC(=O)NCc2ccccc2)=C(O)C1
Result :: 0% (inactive)

Query :: Data request, read-out inhibition, for Cc1cc(C)n(CC(=O)O)n1
Result :: 0% (inactive)

Query :: Data request, read-out inhibition, for Cc1cc(OCC(=O)O)c2c3c(c(=O)oc2c1)CCCC3
Result :: 1% (inactive)

Query :: Data request, read-out inhibition, for O=C(NCN1CCCCC1)c1cccnc1
Result :: 0% (inactive)

Query :: Data request, read-out inhibition, for Cc1cncn1CCc1nc2c3ccccc3nc(=S)n2[nH]1
Result :: 7% (inactive)

Query :: Data request, read-out inhibition, for COc1cc(C(=O)Nc2cc(Cl)ccc2C)c(-n2cnnn2)cc1OC
Result :: 9% (inactive)

Query :: Data request, read-out inhibition, for Cc1ccc(S(=O)(=O)NCC(=O)OCN2C(=O)c3ccccc3C2=O)cc1
Result :: 4% (inactive)

Query :: Data request, read-out inhibition, for CC(=O)c1ccc(N2CCN(C(=O)c3cc(C)on3)CC2)cc1
Result :: 0% (inactive)

Query :: Data request, read-out inhibition, for COc1ccc(OC)c(C(=O)CSc2nnc(-c3ccc(OC)c(OC)c3)o2)c1
Result :: 11% (inactive)

Query :: Data request, read-out inhibition, for CCCc1ccccc1OCCNC(C)=O
Result :: 3% (inactive)

Query :: Data request, read-out inhibition, for CCOC(=O)c1[nH]nc(-c2c(O)cc(C)cc2O)c1-c1csc(C)n1
Result :: 0% (inactive)

Query :: Data request, read-out inhibition, for CC1(C)CC(=O)C(C=Nc2ccncc2)=C(O)C1
Result :: 0% (inactive)

Query :: Data request, read-out inhibition, for O=C(CN(CC1CCCO1)S(=O)(=O)c1ccc(S(=O)(=O)NC2CC2)cc1)Nc1ccccc1 (stereo unspecified)
Result :: 0% (inactive)

Query :: Data request, read-out inhibition, for CCCC(=O)Nc1cc(-c2nnc(OC)c3ccccc23)ccc1N1CCOCC1
Result :: 0% (inactive)

Query :: Data request, read-out inhibition, for COc1ccc(-c2noc(CCCC(=O)O)n2)cc1
Result :: 8% (inactive)

Query :: Data request, read-out inhibition, for N#CC1=C(N)Oc2n[nH]c(-c3ccncc3)c2C1c1ccsc1 (stereo unspecified)
Result :: 0% (inactive)

Query :: Data request, read-out inhibition, for O=C(C1CCCCC1)N1CCC(c2nc3c(nnn3Cc3ccccc3Cl)c(=O)[nH]2)CC1
Result :: 4% (inactive)

Query :: Data request, read-out inhibition, for Cc1ccccc1NC(=O)C1CCCN(S(=O)(=O)c2cnc[nH]2)C1 (stereo unspecified)
Result :: 2% (inactive)

Query :: Data request, read-out inhibition, for Cn1c(=O)[nH]c(=O)c2c1nc(CN1CCN(c3cccc(Cl)c3)CC1)n2CCc1ccccc1
Result :: 4% (inactive)

Query :: Data request, read-out inhibition, for COC(=O)c1c(-c2ccc(F)cc2)noc1N
Result :: 2% (inactive)

Query :: Data request, read-out inhibition, for CCn1c(=O)c(C(=O)Nc2cccnc2)c(O)c2ccccc21
Result :: 0% (inactive)

Query :: Data request, read-out inhibition, for COc1cccc(NC(=O)c2ccco2)c1
Result :: 0% (inactive)

Query :: Data request, read-out inhibition, for CC(n1cnnn1)C12CC3CC(CC(C3)C1)C2 (stereo unspecified)
Result :: 8% (inactive)

Query :: Data request, read-out inhibition, for COC(=O)Nc1nc2c(C)cccc2s1
Result :: 0% (inactive)

Query :: Data request, read-out inhibition, for c1ccc(-c2csc(N3CCCCCC3)n2)cc1
Result :: 4% (inactive)

Query :: Data request, read-out inhibition, for CCN1C(=O)/C(=C/N2CCc3ccccc32)SC1=S
Result :: 0% (inactive)

Query :: Data request, read-out inhibition, for C=CCn1c(-c2ccccc2)c[nH]c1=S
Result :: 0% (inactive)

Cited source for all entries: PubChem BioAssay
